These data points were gathered from PubChem BioAssay.

Listed here: items and their measured nuclei count.
assay.overview: endothelial E-selectin expression blockers – imaging, HUVEC, immunofluorescence, MLSMR starter and 10KST1 sets, primary screen (AID 487);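 further: 100% = median nuclei count of all wells on the same plate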
experimental.parameters: HUVEC TNFalpha-induced E-selectin immunofluorescence imaging, at 2 µM; measured here: cell number, toxicity
measure: nuclei count (%)

[[record]]
molecule = "CCCCn1c(SCc2ccc(Cl)cc2)nc2c1c(=O)[nH]c(=O)n2C"
assay_value = 98.4

[[record]]
molecule = "Cc1ccc(S(=O)(=O)N2CCCC(C(=O)NC3=NCCS3)C2)cc1 (stereo not drawn)"
assay_value = 106

[[record]]
molecule = "CN(c1ccccc1C(=O)NCC1CCCO1)S(C)(=O)=O (stereo not drawn)"
assay_value = 93.8

[[record]]
molecule = "CN1CCN(c2ncnc3c2cnn3-c2ccc(Cl)cc2)CC1"
assay_value = 122

[[record]]
molecule = "COc1ccc(CCNC(=O)CSc2nnnn2-c2ccccc2OC)cc1OC"
assay_value = 109

[[record]]
molecule = "CC(C)=CCC(C)(C)C1OCCN1C(=O)c1ccccc1 (stereo not drawn)"
assay_value = 106

[[record]]
molecule = "CCn1cc(C(=O)OCc2ccc(F)cc2)c(=O)c2ccc(C)nc21"
assay_value = 98

[[record]]
molecule = "CCCc1cn(S(=O)(=O)c2ccc(OC)cc2OC)nc1N"
assay_value = 119

[[record]]
molecule = "C/C(N)=C(/C#N)C(=O)COC(=O)c1cc(S(=O)(=O)N2CCCCC2)ccc1C"
assay_value = 85.7

[[record]]
molecule = "CCC1CCCCN1CCCNC(=O)c1ccc(CS(=O)(=O)Cc2ccccc2F)o1 (stereo not drawn)"
assay_value = 91

[[record]]
molecule = "Cc1ccccc1Cn1c(=O)c2c(nc3n2CCCN3Cc2ccccc2)n(C)c1=O"
assay_value = 120

[[record]]
molecule = "CN(CC(=O)N1CCN(c2ccccn2)CC1)S(=O)(=O)c1ccc2ccccc2c1"
assay_value = 119

[[record]]
molecule = "O=C(Cn1c(NCCO)nc2ccccc21)c1ccccc1"
assay_value = 115

[[record]]
molecule = "COC(=O)c1[nH]c2ccc(C)cc2c1NC(=O)CN1CCCC(C)(C)C1"
assay_value = 107

[[record]]
molecule = "CCc1c(C(=O)Nc2cc(C)ccc2OC)[nH]c(C)c1C(C)=O"
assay_value = 76.2

[[record]]
molecule = "CC1CCc2c(sc3c2C2=NS(=O)(=O)CCN2C=N3)C1 (stereo not drawn)"
assay_value = 108

[[record]]
molecule = "O=C(Nc1ccon1)c1cccc(S(=O)(=O)N2CCCC2)c1"
assay_value = 102

[[record]]
molecule = "Cc1ccc(S(=O)(=O)N2CCOCC2)cc1C(=O)Nc1ccccn1"
assay_value = 111

[[record]]
molecule = "Cc1cc(C(=O)O)ccc1-n1c(C)ccc1C"
assay_value = 118

[[record]]
molecule = "Cc1cccc(C)c1-n1nnnc1SCSc1nnnn1-c1c(C)cccc1C"
assay_value = 116

[[record]]
molecule = "COC(=O)c1ccccc1S(=O)(=O)N(CCCO)Cc1cc2c(C)ccc(C)c2[nH]c1=O"
assay_value = 120

[[record]]
molecule = "O=C(Nc1ccc(F)cc1)NC1CCN(Cc2nnnn2Cc2ccco2)CC1"
assay_value = 113

[[record]]
molecule = "C#CCSc1nnc(-c2ccccc2)c(=O)[nH]1"
assay_value = 109

